- assayExplanation: Incorporation into clots induced in a rat model (rat inferior vena cava model)
- Type: in vivo, rat (Male Wistar)
- conditionParameters: Fresh Clots
The star is where a group is joined. Adamantane1carbonyl = O=C(C12CC3CC(CC(C3)C1)C2)*
# Clot/blood listing for each entry below
// no unit string in output, number only

[
  {
    "substance": "(CF3)2(C6H3)-NQEQVSPYTLLKG-Pn216 ({(CF3)2(C6H3)}-NQEQVSPYTLLKG-Pn216; also: 99mTc complex) [^99mTc-Cmpd 10]",
    "Clot/blood": 4
  },
  {
    "substance": "Adamantoyl-NQEQVSPYTLLKG-Pn216 (Adamantane1carbonyl-NQEQVSPYTLLKG-Pn216; also: 99mTc complex) [^99mTc-Cmpd 11]",
    "Clot/blood": 10
  },
  {
    "substance": "Z-NQEQVSP(I-Y)TLLKG-Pn216 [^99mTc-Cmpd 24]",
    "Clot/blood": 10
  }
]

For Ac-LEFDTQSKNILG-Pn216 (also: 99mTc complex) [^99mTc-Cmpd 47] , write its Clot/blood.
0.8

For Ac-NQEQVSPYTLLKG-(PEG)10k-Pn216 (Ac-NQEQVSPYTLLKG-{PEG 10k-Pn216}; also: 99mTc complex) [^99mTc-Cmpd 41] , write its Clot/blood.
3
